Origin of values: the OligoGym collection

testedOn: CLRN3
assayInfo: pooled miR-30 sensor sort-seq; sequence = guide strand; also: reference of the scale not given here
conditionInfo: shRNA
Classify as follows. Reported sensor-assay potency score (higher = more potent) greater than or equal to -0.5: label 1. Reported sensor-assay potency score (higher = more potent) below: label 0.

>  <residues>
TAAGTGATGAAAATGCTCCCAT

>  <groupLabel>
label 1

$$$$
>  <residues>
TAAAACTGCAAACTTTTTCTTT

>  <groupLabel>
label 1

$$$$
>  <residues>
TCTCTAACAGCAATCGTACTGG

>  <groupLabel>
label 1

$$$$
>  <residues>
TAAAGCATTTGGAACAACTCTT

>  <groupLabel>
label 1

$$$$
>  <residues>
TTGAAGCAGAGTCTCTAACAGC

>  <groupLabel>
label 0

$$$$
>  <residues>
TCTAACAGCAATCGTACTGGTG

>  <groupLabel>
label 1

$$$$
